Values were extracted from PubChem BioAssay (NCATS).

Test system: CP325
Experiment: qHTS profiling for inhibitors of Plasmodium falciparum proliferation (AID 504749); further: nearly all actives have a fitted effect of over 60% in size
Settings: P. falciparum in erythrocytes, SYBR Green DNA, 72 h; series mostly up to 28.7 µM
Protocol: NIH National Institute of Allergy and Infectious Diseases [NIAID] NIH Chemical Genomics Center [NCGC] […] Because mature erythrocytes lack DNA, only Plasmodium-derived DNA is detected. NCGC Assay Protocol Summary: The SYBR Green viability assay was adapted from a method described previously (Plouffe et al., 2008). […] The following morning, fluorescence intensity at 485(14) nm excitation and 535(25) nm emission wavelengths was measured on an EnVision (Perkin Elmer) plate reader. […]
Records with an inconclusive call do not appear. Calls of active or inactive are those of the source. The call rests on the fitted dose curve; in most records, active means well fitted inhibition curve with a large enough effect; inconclusive means small, poorly fitted or top-dose-only effect; inactive means flat fitted curve, though single readings scatter.
Possible outcomes: TRUE for active, FALSE for inactive

compound	assignedCategory
C[C@H](O)[C@@H]1C(=O)N2C(C(=O)O)=C(SCCN=CN)C[C@@H]12	FALSE
O=[N+]([O-])O[C@H]1CO[C@H]2[C@@H]1OC[C@H]2O	FALSE
C[C@@H]1CC2C3CCC4=CC(=O)C=C[C@]4(C)[C@@]3(F)[C@@H](O)C[C@]2(C)[C@@]1(O)C(=O)COC(=O)c1cccc(S(=O)(=O)O)c1 (some centres undefined)	FALSE
CCC(C(=O)C(C)C(O)C(C)CCc1ccc(C)c(O)c1C(=O)O)C1OC(CC)(C2CC[C@@](O)(CC)C(C)O2)CC1C (some centres undefined)	TRUE
COc1cccc(OC)c1C(=O)NC1C(=O)N2C1SC(C)(C)C2C(=O)O (centres undefined)	FALSE
O=C(O)c1ccc(N[C@@H]2OC[C@@H](O)[C@@H](O)[C@@H]2O)cc1	FALSE
CC(C)C[C@@H](NC(=O)[C@@H](Cc1ccccc1)NC(=O)c1cnccn1)B(O)O	TRUE
C=CCN1CC(C(=O)N(CCCN(C)C)C(=O)NCC)CC2c3cccc4[nH]cc(c34)CC21 (centres undefined)	FALSE
CCN1CCN(C(=O)NC(C(=O)NC2C(=O)N3C(C(=O)O)=C(CSc4nnnn4C)CSC23)c2ccc(O)cc2)C(=O)C1=O (centres undefined)	FALSE
NC(CSSCC(N)C(=O)O)C(=O)O (centres undefined)	FALSE
CC1(Cn2ccnn2)[C@H](C(=O)O)N2C(=O)C[C@H]2S1(=O)=O (some centres undefined)	FALSE
CCC(=O)OC1C(N(C)C)CC(C)O[C@H]1O[C@H]1[C@H](C)[C@@H](O[C@H]2CC(OC)[C@@H](O)C(C)O2)[C@H](C)C(=O)O[C@@H](CC)[C@](C)(O)[C@@H](O)[C@H](C)C(=O)[C@@H](C)C[C@]1(C)O (some centres undefined)	FALSE
C[C@]12CC[C@@H]3c4ccc(O)cc4CC[C@H]3[C@@H]1C[C@H](O)C2O (some centres undefined)	FALSE
OCC1O[C@H](Oc2ccc(O)cc2)C(O)C(O)C1O (some centres undefined)	FALSE
C/C1=C2/[N-]C(C(CC(N)=O)[C@@]2(C)CCC(=O)NCC(C)OP(=O)([O-])O[C@H]2[C@@H](O)[C@@H](n3cnc4cc(C)c(C)cc43)O[C@@H]2CO)[C@]2(C)N=C(/C(C)=C3N=C(/C=C4N=C1C(CCC(N)=O)C\4(C)C)[C@@H](CCC(N)=O)[C@]\3(C)CC(N)=O)[C@@H](CCC(N)=O)[C@]2(C)CC(N)=O.CC(=O)O.[Co] (some centres undefined)	FALSE
OCCN1CC(O)C(O)C(O)C1CO (centres undefined)	FALSE
C=C1CC[C@H](O)C/C1=C/C=C1\CCC[C@]2(C)[C@@H]([C@H](C)CCCC(C)(C)O)CC[C@@H]12	FALSE
CC(O)C(N)C(=O)O (centres undefined)	FALSE
CO/N=C(/C(=O)N[C@@H]1C(=O)N2C(C(=O)O)=C(CSC(=O)c3ccco3)CSC12)c1csc(N)n1 (some centres undefined)	FALSE
CC1(C)CC1C(=O)N/C(=C/CCCCSCC(N)C(=O)O)C(=O)O (centres undefined)	FALSE
COC(=O)C1[C@@H](OC)C(OC(=O)COc2ccc(OC)cc2)C[C@@H]2CN3CCc4c([nH]c5cc(OC)ccc45)[C@H]3C[C@H]12 (some centres undefined)	FALSE
COC(=O)C1C2CC3c4[nH]c5cc(OC)ccc5c4CCN3CC2CC(OC)C1OC (centres undefined)	FALSE
CCCC(=O)O[C@]1(C(=O)COC(C)=O)CC[C@H]2C3C[C@H](F)C4=CC(=O)C=CC4(C)[C@@]3(F)[C@@H](O)CC21C (some centres undefined)	FALSE
OCC(O)C(O)C(O)C(O)CO (centres undefined)	FALSE
